assay.procedure: gradient 5% acetonitrile 3 min, to 50% in 2 min, to 85% in 15 min, held 3 min, 100 µL/min
recorded.conditions: column: Zorbax Extend-C18 2.1 x 50 mm; eluents: water / acetonitrile, 0.1% formic acid
property: RP-LC retention time (s)

As a guide, the following entries are already answered.
O=C([C@@H]1C[C@H](F)CN1C(=O)Nc1ccc(C(F)(F)F)cc1)N1CCCCC1
821
O=C(NCc1ccccn1)c1cccc(N2CCNC(c3ccccc3)C2)n1 (centres undefined)
564
COc1cccc(N2CCN(c3ccnc(SCC(=O)Nc4cc(Cl)ccc4OC)n3)CC2)c1
964
CCN(CC)S(=O)(=O)c1ccc2c(c1)N(CC(=O)NCc1ccc(C)cc1)C(=O)C1CCCCN21 (centres undefined)
1030
Cc1cccc(N2CCN(C(=O)CCC(=O)N3CCCn4nc(-c5cccn5C)cc43)CC2)c1C
968
CCN1C(=O)c2cccnc2Sc2cc(NC(=O)COc3ccc(F)c(F)c3)ccc21
882
COc1ccc(OC)c(NC(=O)Nc2c(-c3ccc(C)cc3)nc3ccccn23)c1
698
CN(CC(=O)Nc1ccc(F)cc1)C(=O)C1CCN(c2cnn(C)c(=O)c2)C1 (centres undefined)
634

P. CC1=NS(=O)(=O)N(C)C=C1C(=O)OCCC(C)C
Q. O=C(NCCCN1CCCC1=O)C1CCN(c2cncnc2N2CCOCC2)CC1
Req: In terms of reported RP-LC retention time, does P or Q have the smaller number? Indicate your choice by writing its label.
Resp: Q
(Q: 535 s, P: 966 s)
